Recorded cAMP induction EC50, one value per entry.
target: PTHR1GFP (human) (UniProt Q03431); test: cell-based or functional assay
measured.metric: cAMP induction EC50 (nM)

> print(dat)
          substance  units.text  sign  observed.measurement
1  VHHGFP-PTH(1-10)          nM     >                   100
2   VHHGFP-PTH(1-9)          nM     >                   100
3  VHHGFP-PTH(1-11)          nM     =                     8
4  VHHGFP-PTH(1-14)          nM     =                   1.8

Reference source for all entries: patent US20200316217A1
